- test system: Peroxisomal multifunctional enzyme type 2 (Homo sapiens)
- assay text: Extended Characterization of HPGD Inhibitors: Counterscreen Against HSD17b4
- measurement setup: purified HSD17B4, estradiol/NAD+, NADH fluorescence; series mostly up to 57.1 µM
This is one part of the list. Records with an inconclusive call do not appear. Active and inactive are the calls of the source. Calls follow the shape of the dose curve; as a rule, active = well fitted inhibition curve with a large enough effect; inconclusive = small, poorly fitted or top-dose-only effect; inactive = no such curve, though single readings can be large or run the other way.
One label from this list, please: active, inactive

Consider the following illustrative entries.
INSERT INTO measurements (molecule, cat) VALUES
  ('COc1cccc(NC(=S)N2CCN(c3ccccc3C(F)(F)F)CC2)n1', 'inactive'),
  ('COc1ccnc(NC(=S)N2CCN(c3ncc(C(F)(F)F)cc3Cl)CC2)c1', 'inactive'),
  ('Cc1cc(C)nc(NC(=S)N2CCN(c3cccc(C#N)c3)CC2)c1', 'inactive'),
  ('Cc1cc(C)nc(NC(=S)N2CCN(c3ccc(Cl)cc3C(F)(F)F)CC2)c1', 'active'),
  ('FC(F)(F)c1cccc(N2CCN(C(=S)Nc3ccncc3)CC2)c1', 'inactive');

Query molecule follows.
Problem: Each molecule tested received a call. Report the one for Cc1cc(-c2nnc3n2CCCCC3)c(C)n1-c1cccc(Cl)c1 .
Solution: inactive

Each recorded value in this set is attributed to PubChem BioAssay AID743187.
